ASSAY_TARGET: human P2X4 (Homo sapiens)
Sequence (Q99571 whole entry): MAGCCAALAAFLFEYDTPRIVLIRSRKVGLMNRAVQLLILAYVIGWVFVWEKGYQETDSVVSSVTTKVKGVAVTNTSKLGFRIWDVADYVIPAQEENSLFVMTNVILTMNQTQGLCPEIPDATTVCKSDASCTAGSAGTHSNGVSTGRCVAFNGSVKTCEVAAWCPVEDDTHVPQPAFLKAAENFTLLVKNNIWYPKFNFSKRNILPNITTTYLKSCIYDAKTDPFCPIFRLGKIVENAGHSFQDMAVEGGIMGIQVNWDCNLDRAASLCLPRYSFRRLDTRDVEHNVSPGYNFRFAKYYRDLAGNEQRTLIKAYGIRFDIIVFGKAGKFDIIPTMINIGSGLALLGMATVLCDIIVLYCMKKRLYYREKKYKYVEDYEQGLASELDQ
PROCEDURE_SUMMARY: Human P2X4 HEK Cell FLIPR Assay
RUN_PARAMETERS: HEK293 cells, agonist Bz-ATP at EC80; individual values listed where some fall outside detection range
Field: pIC50. Provide a value for each of the molecules that follow.
Give bare numbers, as −log10 of the molar value.

{"MOLECULE": "NS(=O)(=O)c1cc(NC(=O)C(O)c2ccccc2Cl)ccc1-c1cnn(C2CC2)c1 (centres unmarked)", "ASSAY_RESULT": 5.59}
{"MOLECULE": "CNc1ncc(-c2ccc(NC(=O)Cc3ccccc3Cl)cc2S(N)(=O)=O)cn1", "ASSAY_RESULT": 8.00}
{"MOLECULE": "COc1ccc(CC(=O)Nc2ccc(-n3cc(C#N)cn3)c(S(N)(=O)=O)c2)c(Cl)c1", "ASSAY_RESULT": 6.94}
{"MOLECULE": "NS(=O)(=O)c1cc(NC(=O)Cc2ccccc2Br)ccc1-n1cc(Cl)cn1", "ASSAY_RESULT": 7.31}
{"MOLECULE": "NS(=O)(=O)c1cc(NC(=O)Cc2ccccc2F)ccc1-c1cnn(C2CC2)c1", "ASSAY_RESULT": 7.36}
{"MOLECULE": "CC(C)(C)n1cc(-c2ccc(NC(=O)Cc3ccccc3Cl)cc2S(N)(=O)=O)cn1", "ASSAY_RESULT": 7.70}

Switching to the query record.
Per the reported human P2X4 (Homo sapiens) data, CN(C)c1nc(-c2ccc(NC(=O)Cc3ccccc3Cl)cc2S(N)(=O)=O)cs1 has pIC50 of 6.89

----------
ASSAY_TARGET: human P2X4 (Homo sapiens)
PROCEDURE_SUMMARY: Human P2X4 HEK Cell FLIPR Assay
RUN_PARAMETERS: HEK293 cells, agonist Bz-ATP at EC80; individual values listed where some fall outside detection range
MEASUREMENT_KIND: pIC50
Give bare numbers, as −log10 of the molar value.

Solved cases (3 shown):
{"MOLECULE": "Cc1ccc(F)c(CC(=O)Nc2ccc(-n3cc(Cl)cn3)c(S(N)(=O)=O)c2)c1Cl [Example 95]", "ASSAY_TARGET": "human P2X4 (Homo sapiens)", "ASSAY_RESULT": 7.27}
{"MOLECULE": "NS(=O)(=O)c1cc(NC(=O)Cc2ccccc2Cl)ccc1-c1noc(C(F)(F)F)n1 [Example 261]", "ASSAY_TARGET": "human P2X4 (Homo sapiens)", "ASSAY_RESULT": 6.95}
{"MOLECULE": "COc1nc(-c2ccc(NC(=O)Cc3ccccc3Cl)cc2S(N)(=O)=O)cs1 [Example 421]", "ASSAY_TARGET": "human P2X4 (Homo sapiens)", "ASSAY_RESULT": 6.17}

Batch request: pIC50 for each of the following molecules.
1. NS(=O)(=O)c1cc(NC(=O)Cc2ccc(Cl)cc2Cl)ccc1-n1cc(F)cn1 [Example 178]
2. NS(=O)(=O)c1cc(NC(=O)Cc2cccc(C(F)(F)F)c2Cl)ccc1-n1cc(Cl)cn1 [Example 90]
3. Cc1cc(F)c(Br)cc1CC(=O)Nc1ccc(-n2cc(F)cn2)c(S(N)(=O)=O)c1 [Example 166]

output:
7.40
6.11
5.82

Batch request: pIC50 for each of the following molecules.
1. CN(C)CCNC(=O)c1cccc(-c2ccc(NC(=O)Cc3ccccc3Cl)cc2S(N)(=O)=O)c1 [Example 364]
2. NS(=O)(=O)c1cc(NC(=O)Cc2ccccc2Br)ccc1-c1ccc(Cl)nc1 [Example 467]
3. NS(=O)(=O)c1cc(NC(=O)Cc2ccccc2Cl)ccc1-c1cnc(C2CC2)nc1 [Example 308]

output:
6.15
8.05
7.19

Batch request: pIC50 for each of the following molecules.
1. COc1ccc(CC(=O)Nc2ccc(-c3cncc(C(F)(F)F)c3)c(S(N)(=O)=O)c2)cc1 [Example 455]
2. NS(=O)(=O)c1c(-c2cnn(C(F)F)c2)ccc(NC(=O)Cc2ccccc2Cl)c1C(F)(F)F [Example 489]

output:
[8.30, 5.69]

Batch request: pIC50 for each of the following molecules.
1. NS(=O)(=O)c1cc(NC(=O)Cc2ccccc2F)ccc1-c1ccc(Cl)nc1 [Example 460]
2. NS(=O)(=O)c1cc(NC(=O)Cc2cc(F)c(F)cc2Cl)ccc1-n1cc(Cl)cn1 [Example 93]
3. CC(C)Cn1cc(-c2ccc(NC(=O)Cc3ccccc3Cl)cc2S(N)(=O)=O)cn1 [Example 328]
4. N#Cc1cnn(-c2ccc(NC(=O)Cc3cc(F)ccc3Cl)cc2S(N)(=O)=O)c1 [Example 214]
5. NS(=O)(=O)c1cc(NC(=O)Cc2cc(F)ccc2Cl)ccc1-c1cnn(C(F)F)c1 [Example 228]

output:
1. 6.19
2. 7.13
3. 7.92
4. 7.44
5. 7.43

Batch request: pIC50 for each of the following molecules.
1. NS(=O)(=O)c1cc(NC(=O)Cc2ccc(F)cc2Cl)ccc1-n1cc(C(F)(F)F)cn1 [Example 127]
2. NS(=O)(=O)c1cc(NC(=O)Cc2ccccc2Cl)ccc1-n1ncc(C(F)(F)F)n1 [Example 241]

output:
[6.68, 7.32]

Batch request: pIC50 for each of the following molecules.
1. NS(=O)(=O)c1cc(NC(=O)Cc2ccccc2Cl)ccc1-n1cc(-c2cnccn2)cn1 [Example 401]
2. Cc1ccccc1CC(=O)Nc1ccc(-n2cc(C(F)(F)F)cn2)c(S(N)(=O)=O)c1 [Example 123]
3. CC(C)(C)c1cn(-c2ccc(NC(=O)Cc3ccccc3Cl)cc2S(N)(=O)=O)cn1 [Example 40]
4. NS(=O)(=O)c1cc(NC(=O)Cc2ccc(F)cc2Cl)ccc1-n1cc(Cl)cn1 [Example 88]
5. CC(C)n1cc(-c2ccc(NC(=O)Cc3ccccc3F)cc2S(N)(=O)=O)cn1 [Example 343]
6. Cc1ccc(CC(=O)Nc2ccc(-n3cc(Cl)cn3)c(S(N)(=O)=O)c2)cc1 [Example 172]
7. CC(C)Nc1ncc(-c2ccc(NC(=O)Cc3ccccc3Cl)cc2S(N)(=O)=O)cn1 [Example 310]
8. CC(C)c1cnn(-c2ccc(NC(=O)Cc3ccccc3F)cc2S(N)(=O)=O)c1 [Example 517]

output:
1. 7.64
2. 6.96
3. 5.91
4. 7.10
5. 7.38
6. 7.32
7. 7.07
8. 6.73

Batch request: pIC50 for each of the following molecules.
1. NS(=O)(=O)c1cc(NC(=O)Cc2ccccc2C(F)F)ccc1-c1cnn(C(F)F)c1 [Example 225]
2. NS(=O)(=O)c1cc(NC(=O)Cc2ccccc2Cl)ccc1-n1nnc2c(F)cc(F)cc21 [Example 481]
3. N#Cc1cnn(-c2ccc(NC(=O)C(F)(F)c3ccccc3Cl)cc2S(N)(=O)=O)c1 [Example 220]
4. COc1ccc(CC(=O)Nc2ccc(-n3cc(C(F)(F)F)nn3)c(S(N)(=O)=O)c2)cc1 [Example 407]
5. NS(=O)(=O)c1cc(NC(=O)Cc2ccccc2Cl)ccc1-c1cccc(Cl)c1 [Example 356]

output:
1. 7.15
2. 7.30
3. 6.56
4. 6.37
5. 7.20

----------
ASSAY_TARGET: human P2X4 (Homo sapiens)
PROCEDURE_SUMMARY: Human P2X4 HEK Cell FLIPR Assay
Type: cell-based
RUN_PARAMETERS: HEK293, HEK293 cells, agonist Bz-ATP at EC80; percentage of maximal inhibition; read-out: Human P2X4 HEK Cells (FLIPR Assay) avg Efficacy [%]
MEASUREMENT_KIND: Emax (%)
Numbers only, in %.

Solved cases (5 shown):
{"MOLECULE_SMILES": "NS(=O)(=O)c1cc(NC(=O)Cc2ccccc2Cl)ccc1-c1cccnc1", "ASSAY_TARGET": "human P2X4 (Homo sapiens)", "READING_UNIT": "%", "Emax": 92}
{"MOLECULE_SMILES": "N#Cc1cnn(-c2ccc(NC(=O)Cc3c(F)ccc(F)c3Cl)cc2S(N)(=O)=O)c1", "ASSAY_TARGET": "human P2X4 (Homo sapiens)", "READING_UNIT": "%", "Emax": 91}
{"MOLECULE_SMILES": "NS(=O)(=O)c1cc(NC(=O)Cc2c(F)ccc(F)c2Cl)ccc1-n1cc(F)cn1", "ASSAY_TARGET": "human P2X4 (Homo sapiens)", "READING_UNIT": "%", "Emax": 83}
{"MOLECULE_SMILES": "N#Cc1cnn(-c2ccc(NC(=O)Cc3cccnc3Cl)cc2S(N)(=O)=O)c1", "ASSAY_TARGET": "human P2X4 (Homo sapiens)", "READING_UNIT": "%", "Emax": 83}
{"MOLECULE_SMILES": "NC(=O)c1cnn(-c2ccc(NC(=O)Cc3ccccc3Cl)cc2S(N)(=O)=O)c1", "ASSAY_TARGET": "human P2X4 (Homo sapiens)", "READING_UNIT": "%", "Emax": 82}

Batch request: Emax for each of the following compounds.
1. NS(=O)(=O)c1cc(NC(=O)Cc2ccccc2Cl)ccc1-c1cnn(CCOC(F)(F)F)c1
2. Cn1c(C#N)ccc1-c1ccc(NC(=O)Cc2ccccc2Cl)cc1S(N)(=O)=O
3. NS(=O)(=O)c1cc(NC(=O)Cc2ccccc2Cl)ccc1-c1cncc(OC(F)(F)F)c1

output:
96
112
62
